Test system: cancer cell lines
Test: In vitro assays of cancer cell lines
Format: cell-based
Conditions: direct activity on cancer cell lines; read-out: IC50 in all in vitro assays of cancer cell lines
pIC50: −log10 of the molar value.
parameter: pIC50

Measured on cancer cell lines, `C/C=C(\C)C(=O)C1=C2C3=CN([C@@H](CCC(=O)O)C(=O)O)C(/C=C/[C@@H](C)CC)=CC3=C(Cl)C(=O)[C@@]2(C)OC1=O` has a documented pIC50 of < 4.30

----------
System: NK92 cells
Experiment: Killing function of NK92 cells against tumor cells after compound treatment (LDH assay, initial screening)
Assay type: cell-based, Human
Conditions: Homo sapiens; NK92 treated at 100 nM for 72 h; effector-to-target ratio 5:1, 5 h co-culture; LDH release; read-out: tumor killing rate by NK activation
parameter: cytotoxicity at 0.1 µM (%)
Give just the number in %; leave the unit off.

- mol_smiles: "C/C=C(\\C)C(=O)C1=C2C3=CN([C@@H](CCC(=O)O)C(=O)O)C(/C=C/[C@@H](C)CC)=CC3=C(Cl)C(=O)[C@@]2(C)OC1=O"
  units: "%"
  observed_measurement: 75.2
- mol_smiles: "CC[C@H](C)/C=C(C)/C=C/C1=CC2=C(Cl)C(=O)[C@](C)(OC(C)=O)C(=O)C2=CN1[C@@H](Cc1ccccc1)C(=O)O"
  units: "%"
  observed_measurement: 65.2

Query `C/C=C(\C)C(=O)C1=C2C3=CN([C@@H](Cc4c[nH]c5ccccc45)C(=O)O)C(/C=C/[C@@H](C)CC)=CC3=C(Cl)C(=O)[C@@]2(C)OC1=O` yields cytotoxicity at 0.1 µM of 35.9

The recorded cytotoxicity at 0.1 µM for entry `CC[C@H](C)/C=C(C)/C=C/C1=CC2=C(Cl)C(=O)[C@](C)(OC(C)=O)C(=O)C2=CN1CCO` equals 8.11

Reported cytotoxicity at 0.1 µM of `CC[C@H](C)/C=C(C)/C=C/C1=CC2=C(Cl)C(=O)[C@](C)(OC(C)=O)C(=O)C2=CN1[C@@H](CC(C)C)C(=O)O` : 18.7

Reported cytotoxicity at 0.1 µM of `CC[C@H](C)/C=C(C)/C=C/C1=CC2=C(Cl)C(=O)[C@](C)(OC(C)=O)C(=O)C2=CN1[C@@H](CO)C(=O)O` : 58.3
